study-target: UniProt:P33533
method-notes: Binding assay of opioid δ receptor ([3H]-DADLE, rat cerebrum membrane)
experimental-conditions: [3H]-DADLE, rat cerebrum membrane fraction; read-out: Ki
pKi: −log10 of the molar value.
result-type: pKi

[[record]]
structure = "COC(=O)C(C)(C)NC(=O)C1=C(O)[C@@H]2Oc3c(O)ccc4c3[C@@]23CCN(CC2CC2)[C@H](C4)[C@]3(O)C1"
study_target = "UniProt:P33533"
result_type = "pKi"
meas_value = 8.40

[[record]]
structure = "CC(C)(NC(=O)C1=C(O)[C@@H]2Oc3c(O)ccc4c3[C@@]23CCN(CC2CC2)[C@H](C4)[C@]3(O)C1)c1nc(-c2ccccc2)no1"
study_target = "UniProt:P33533"
result_type = "pKi"
meas_value = 9.04

[[record]]
structure = "CC(C)NC(=O)C1=C(NS(=O)(=O)c2ccc(F)cc2)[C@@H]2Oc3c(O)ccc4c3[C@@]23CCN(CC2CC2)[C@H](C4)[C@]3(O)C1"
study_target = "UniProt:P33533"
result_type = "pKi"
meas_value = 9.33


* * *

study-target: UniProt P33533
method-notes: Binding assay of opioid δ receptor ([3H]-DADLE, rat cerebrum membrane)
result-type: Ki (nM)

[[record]]
structure = "Cc1cc(=O)[nH]c2cc(NC(=O)C3=C(O)[C@@H]4Oc5c(O)ccc6c5[C@@]45CCN(CC4CC4)[C@H](C6)[C@]5(O)C3)ccc12"
measurement_units = "nM"
meas_value = 11.5

[[record]]
structure = "O=C(Nc1ccc([N+](=O)[O-])cn1)C1=C(O)[C@@H]2Oc3c(O)ccc4c3[C@@]23CCN(CC2CC2)[C@H](C4)[C@]3(O)C1"
measurement_units = "nM"
meas_value = 13.3

[[record]]
structure = "O=C(Nc1cccc(C(=O)O)c1)C1=C(O)[C@@H]2Oc3c(O)ccc4c3[C@@]23CCN(CC2CC2)[C@H](C4)[C@]3(O)C1"
measurement_units = "nM"
meas_value = 3.01

[[record]]
structure = "O=C(C1=C(O)[C@@H]2Oc3c(O)ccc4c3[C@@]23CCN(CC2CC2)[C@H](C4)[C@]3(O)C1)N1CCCC1"
measurement_units = "nM"
meas_value = 7.4

[[record]]
structure = "CN(C)c1ccc(NC(=O)C2=C(O)[C@@H]3Oc4c(O)ccc5c4[C@@]34CCN(CC3CC3)[C@H](C5)[C@]4(O)C2)cc1"
measurement_units = "nM"
meas_value = 41.8

[[record]]
structure = "O=C(Nc1cccnc1)C1=C(O)[C@@H]2Oc3c(O)ccc4c3[C@@]23CCN(CC2CC2)[C@H](C4)[C@]3(O)C1"
measurement_units = "nM"
meas_value = 5.23


* * *

study-target: opioid μ receptor (Rattus norvegicus (Rat), UniProt P33535)
method-notes: Binding assay to opioid μ receptor ([3H]-DAMGO, rat cerebrum membrane)
result-type: Ki (nM)

[[record]]
structure = "COC(=O)C(C)(C)NC(=O)C1=C(O)[C@@H]2Oc3c(O)ccc4c3[C@@]23CCN(CC2CC2)[C@H](C4)[C@]3(O)C1"
meas_value = 16.5

[[record]]
structure = "CN(C)c1ccc(NC(=O)C2=C(O)[C@@H]3Oc4c(O)ccc5c4[C@@]34CCN(CC3CC3)[C@H](C5)[C@]4(O)C2)cc1"
meas_value = 0.33

[[record]]
structure = "O=C(Nc1ccccc1)C1=C(O)[C@@H]2Oc3c(O)ccc4c3[C@@]23CCN(CC2CC2)[C@H](C4)[C@]3(O)C1"
meas_value = 4.05


* * *

study-target: UniProt P33535
method-notes: Binding assay to opioid μ receptor ([3H]-DAMGO, rat cerebrum membrane)
experimental-conditions: [3H]-DAMGO, rat cerebrum membrane fraction; read-out: Ki
pKi: −log10 of the molar value.
result-type: pKi

[[record]]
compound = "CC(C)NC(=O)C1=C(NS(=O)(=O)c2ccc(F)cc2)[C@@H]2Oc3c(O)ccc4c3[C@@]23CCN(CC2CC2)[C@H](C4)[C@]3(O)C1 [Compound I-289]"
meas_value = 7.89

[[record]]
compound = "COc1ccc(S(=O)(=O)NC(=O)C2=C(O)[C@@H]3Oc4c(O)ccc5c4[C@@]34CCN(CC3CC3)[C@H](C5)[C@]4(O)C2)cc1 [Compound I-123]"
meas_value = 8.77

[[record]]
compound = "O=C(NS(=O)(=O)c1cccc(Cl)c1)C1=C(O)[C@@H]2Oc3c(O)ccc4c3[C@@]23CCN(CC2CC2)[C@H](C4)[C@]3(O)C1 [Compound I-122]"
meas_value = 8.57

[[record]]
compound = "COC(=O)C1(NC(=O)C2=C(O)[C@@H]3Oc4c(O)ccc5c4[C@@]34CCN(CC3CC3)[C@H](C5)[C@]4(O)C2)CCCC1 [Compound I-133]"
meas_value = 8.30


* * *

study-target: opioid δ receptor (Rattus norvegicus (Rat), UniProt P33533)
method-notes: Binding assay of opioid δ receptor ([3H]-DADLE, rat cerebrum membrane)
result-type: Ki (nM)

[[record]]
compound = "Cc1noc(C(C)(C)NC(=O)C2=C(O)[C@@H]3Oc4c(O)ccc5c4[C@@]34CCN(CC3CC3)[C@H](C5)[C@]4(O)C2)n1 [Compound I-285]"
result_type = "Ki"
meas_value = 5.77

[[record]]
compound = "CC(C)NC(=O)C1=C(O)[C@@H]2Oc3c(O)ccc4c3[C@@]23CCN(CC2CC2)[C@H](C4)[C@]3(O)C1 [Compound I-4, 7-Isopropylaminocarbonylnaltrexone]"
result_type = "Ki"
meas_value = 7.38

[[record]]
compound = "COCC(C)(COC)NC(=O)C1=C(O)[C@@H]2Oc3c(O)ccc4c3[C@@]23CCN(CC2CC2)[C@H](C4)[C@]3(O)C1 [Compound I-288]"
result_type = "Ki"
meas_value = 5.36


* * *

The reader will find reported Ki values listed item by item below.
study-target: opioid μ receptor (Rattus norvegicus (Rat), UniProt P33535)
method-notes: Binding assay to opioid μ receptor ([3H]-DAMGO, rat cerebrum membrane)
result-type: Ki (nM)

[[record]]
structure = "O=C(Nc1ccc([N+](=O)[O-])cn1)C1=C(O)[C@@H]2Oc3c(O)ccc4c3[C@@]23CCN(CC2CC2)[C@H](C4)[C@]3(O)C1"
result_type = "Ki"
meas_value = 5.89

[[record]]
structure = "COCC(C)(C)NC(=O)C1=C(O)[C@@H]2Oc3c(O)ccc4c3[C@@]23CCN(CC2CC2)[C@H](C4)[C@]3(O)C1"
result_type = "Ki"
meas_value = 14

[[record]]
structure = "COCC1(NC(=O)C2=C(O)[C@@H]3Oc4c(O)ccc5c4[C@@]34CCN(CC3CC3)[C@H](C5)[C@]4(O)C2)CC1"
result_type = "Ki"
meas_value = 20.1

[[record]]
structure = "O=C(Nc1cccc(C(=O)O)c1)C1=C(O)[C@@H]2Oc3c(O)ccc4c3[C@@]23CCN(CC2CC2)[C@H](C4)[C@]3(O)C1"
result_type = "Ki"
meas_value = 17.3

[[record]]
structure = "CC(C)(NC(=O)C1=C(O)[C@@H]2Oc3c(O)ccc4c3[C@@]23CCN(CC2CC2)[C@H](C4)[C@]3(O)C1)c1nc(-c2ccccc2)no1"
result_type = "Ki"
meas_value = 1.13

[[record]]
structure = "COCC(C)(COC)NC(=O)C1=C(O)[C@@H]2Oc3c(O)ccc4c3[C@@]23CCN(CC2CC2)[C@H](C4)[C@]3(O)C1"
result_type = "Ki"
meas_value = 14.4


* * *

The reader will find reported pKi values listed item by item below.
study-target: opioid μ receptor (Rattus norvegicus (Rat), UniProt P33535)
method-notes: Binding assay to opioid μ receptor ([3H]-DAMGO, rat cerebrum membrane)
experimental-conditions: read-out: Ki
pKi: −log10 of the molar value.
result-type: pKi

[[record]]
structure = "COC(=O)C1(NC(=O)C2=C(O)[C@@H]3Oc4c(O)ccc5c4[C@@]34CCN(CC3CC3)[C@H](C5)[C@]4(O)C2)CC1"
meas_value = 8.80

[[record]]
structure = "O=C(NS(=O)(=O)c1ccc(F)cc1)C1=C(O)[C@@H]2Oc3c(O)ccc4c3[C@@]23CCN(CC2CC2)[C@H](C4)[C@]3(O)C1"
meas_value = 8.41


* * *

study-target: opioid δ receptor (Rattus norvegicus (Rat), UniProt P33533)
method-notes: Binding assay of opioid δ receptor ([3H]-DADLE, rat cerebrum membrane)
experimental-conditions: read-out: Ki
result-type: Ki (nM)

[[record]]
structure = "COC(=O)C1(NC(=O)C2=C(O)[C@@H]3Oc4c(O)ccc5c4[C@@]34CCN(CC3CC3)[C@H](C5)[C@]4(O)C2)CC1"
result_type = "Ki"
measurement_units = "nM"
meas_value = 9.76


* * *

study-target: opioid δ receptor (Rattus norvegicus (Rat))
method-notes: Binding assay of opioid δ receptor ([3H]-DADLE, rat cerebrum membrane)
result-type: Ki

[[record]]
molecule = "O=C(NCCOc1ccccc1)C1=C(O)[C@@H]2Oc3c(O)ccc4c3[C@@]23CCN(CC2CC2)[C@H](C4)[C@]3(O)C1 [Compound I-30]"
meas_value = "5.34 nM"

[[record]]
molecule = "COCC(C)(C)NC(=O)C1=C(O)[C@@H]2Oc3c(O)ccc4c3[C@@]23CCN(CC2CC2)[C@H](C4)[C@]3(O)C1 [Compound I-286]"
meas_value = "2.46 nM"

[[record]]
molecule = "COC(=O)C1(NC(=O)C2=C(O)[C@@H]3Oc4c(O)ccc5c4[C@@]34CCN(CC3CC3)[C@H](C5)[C@]4(O)C2)CCC1 [Compound I-199]"
meas_value = "12.8 nM"

[[record]]
molecule = "CN(Cc1ccccc1)C(=O)C1=C(O)[C@@H]2Oc3c(O)ccc4c3[C@@]23CCN(CC2CC2)[C@H](C4)[C@]3(O)C1 [Compound I-13]"
meas_value = "5.02 nM"

[[record]]
molecule = "CCN(CC)S(=O)(=O)c1ccc(OC)c(NC(=O)C2=C(O)[C@@H]3Oc4c(O)ccc5c4[C@@]34CCN(CC3CC3)[C@H](C5)[C@]4(O)C2)c1 [Compound I-229]"
meas_value = "5.9 nM"

[[record]]
molecule = "O=C(Nc1ccccc1)C1=C(O)[C@@H]2Oc3c(O)ccc4c3[C@@]23CCN(CC2CC2)[C@H](C4)[C@]3(O)C1 [Compound I-10]"
meas_value = "19.9 nM"


The values you see were collected from patent US8536192B2.
